// data source = paper PMC10363080

- target system: pancreatic α-amylase (Sus scrofa, UniProt P00690)
- Construct: pancreatic α-amylase (ex -porcine pancreas, EC 3.2.1.1, Sigma)
- Sequence (P00690 16-511): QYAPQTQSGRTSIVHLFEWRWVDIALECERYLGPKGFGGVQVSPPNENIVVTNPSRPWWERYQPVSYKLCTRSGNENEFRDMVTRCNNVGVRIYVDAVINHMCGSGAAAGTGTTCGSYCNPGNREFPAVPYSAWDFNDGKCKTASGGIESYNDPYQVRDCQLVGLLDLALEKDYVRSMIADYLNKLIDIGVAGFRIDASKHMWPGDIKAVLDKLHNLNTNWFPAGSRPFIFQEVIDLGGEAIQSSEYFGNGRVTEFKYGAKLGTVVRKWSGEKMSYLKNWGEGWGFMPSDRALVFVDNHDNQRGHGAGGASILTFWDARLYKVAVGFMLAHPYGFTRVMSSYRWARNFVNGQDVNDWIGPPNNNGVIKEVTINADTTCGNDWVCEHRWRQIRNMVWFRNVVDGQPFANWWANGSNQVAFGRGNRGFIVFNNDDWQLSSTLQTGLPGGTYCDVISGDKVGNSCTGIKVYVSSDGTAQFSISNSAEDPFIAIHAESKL
- assay summary: α-Amylase inhibitory activity (starch substrate)
- study conditions: isolated compounds, Table S7; read-out: Inhibition (IC50) α-Amylase
experimental readout: IC50 (nM)
Number in nM, nothing else.

Known IC50 results, listed for orientation:
compound | experimental readout | readout unit | measurement
O=C(O)/C=C/c1ccccc1 [P6, cinnamic acid] | IC50 | nM | 1020
COc1cc(-c2oc3cc(O)cc(O)c3c(=O)c2O[C@@H]2O[C@H](CO)[C@@H](O)[C@H](O)[C@H]2O)ccc1O [P3, isorhamnetin-3-O-β-D-glucopyranoside] | IC50 | nM | 2310
O=C(/C=C/c1ccc(O)c(O)c1)O[C@@H]1C[C@](O)(C(=O)O)C[C@@H](O)[C@H]1O [P4, chlorogenic acid] | IC50 | nM | 3780
C[C@@H]1O[C@@H](OC[C@H]2O[C@@H](Oc3c(-c4ccc(O)c(O)c4)oc4cc(O)cc(O)c4c3=O)[C@H](O)[C@@H](O)[C@@H]2O)[C@H](O)[C@H](O)[C@H]1O [P1, rutin] | IC50 | nM | 3540

Exercise: If you can, please state the reported IC50 value of O=c1c(O[C@@H]2O[C@H](CO)[C@@H](O)[C@H](O)[C@H]2O)c(-c2ccc(O)c(O)c2)oc2cc(O)cc(O)c12 [P2, isoquercitrin] .
Solution: 1540

----------
- target system: α-glucosidase (Saccharomyces cerevisiae, UniProt P53341)
- Construct: purchased Sigma
- Sequence (P53341 whole entry): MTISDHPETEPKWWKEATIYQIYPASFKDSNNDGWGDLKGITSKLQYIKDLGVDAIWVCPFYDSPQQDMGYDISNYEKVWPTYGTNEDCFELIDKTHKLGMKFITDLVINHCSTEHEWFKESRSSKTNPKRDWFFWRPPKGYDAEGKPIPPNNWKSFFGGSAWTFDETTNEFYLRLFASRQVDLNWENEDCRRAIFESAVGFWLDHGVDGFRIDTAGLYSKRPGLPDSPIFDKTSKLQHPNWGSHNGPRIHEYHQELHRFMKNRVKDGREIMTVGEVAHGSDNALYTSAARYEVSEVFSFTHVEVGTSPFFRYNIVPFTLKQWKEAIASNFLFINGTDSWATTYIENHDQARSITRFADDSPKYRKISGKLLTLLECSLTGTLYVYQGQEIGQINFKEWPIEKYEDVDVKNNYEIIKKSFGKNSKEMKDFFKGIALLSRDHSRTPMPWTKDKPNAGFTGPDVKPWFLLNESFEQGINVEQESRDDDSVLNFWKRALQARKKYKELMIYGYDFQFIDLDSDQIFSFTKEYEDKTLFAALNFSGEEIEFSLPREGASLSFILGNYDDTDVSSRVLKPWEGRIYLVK
- assay summary: biochemical
- study conditions: isolated compounds, Table S7; read-out: Inhibition (IC50) α-Glucosidase
- Procedure: Phenolic acids and flavonoids used in HPLC analysis as well as all other reagents for biological investigations were obtained from Sigma Chemical Company […] inhibitory concentration (IC50). The percentage of enzyme inhibition was calculated according to […] 0.6 U mL−1) in the presence of phosphate buffer (0.1 M, pH 6.9) for 10 min at 37 °C. […] Enzyme activity was evaluated by measuring ρ-nitrophenol release from the ρNPG […] Absorbance at 405 nm was measured. […]
experimental readout: pIC50
Hey, just a heads up that pIC50 is the negative log base 10 of the concentration in molar.

Exercise: If you can, please state the reported pIC50 value of COc1cc(-c2oc3cc(O)cc(O)c3c(=O)c2O[C@@H]2O[C@H](CO)[C@@H](O)[C@H](O)[C@H]2O)ccc1O [P3, isorhamnetin-3-O-β-D-glucopyranoside] .
Solution: 5.86

----------
- target system: inducible nitric oxide synthase (iNOS) (Mus musculus, UniProt P29477)
- Construct: endogenous in cells; host or cells: RAW264.7 mouse macrophages, LPS-induced
- Sequence (P29477 whole entry): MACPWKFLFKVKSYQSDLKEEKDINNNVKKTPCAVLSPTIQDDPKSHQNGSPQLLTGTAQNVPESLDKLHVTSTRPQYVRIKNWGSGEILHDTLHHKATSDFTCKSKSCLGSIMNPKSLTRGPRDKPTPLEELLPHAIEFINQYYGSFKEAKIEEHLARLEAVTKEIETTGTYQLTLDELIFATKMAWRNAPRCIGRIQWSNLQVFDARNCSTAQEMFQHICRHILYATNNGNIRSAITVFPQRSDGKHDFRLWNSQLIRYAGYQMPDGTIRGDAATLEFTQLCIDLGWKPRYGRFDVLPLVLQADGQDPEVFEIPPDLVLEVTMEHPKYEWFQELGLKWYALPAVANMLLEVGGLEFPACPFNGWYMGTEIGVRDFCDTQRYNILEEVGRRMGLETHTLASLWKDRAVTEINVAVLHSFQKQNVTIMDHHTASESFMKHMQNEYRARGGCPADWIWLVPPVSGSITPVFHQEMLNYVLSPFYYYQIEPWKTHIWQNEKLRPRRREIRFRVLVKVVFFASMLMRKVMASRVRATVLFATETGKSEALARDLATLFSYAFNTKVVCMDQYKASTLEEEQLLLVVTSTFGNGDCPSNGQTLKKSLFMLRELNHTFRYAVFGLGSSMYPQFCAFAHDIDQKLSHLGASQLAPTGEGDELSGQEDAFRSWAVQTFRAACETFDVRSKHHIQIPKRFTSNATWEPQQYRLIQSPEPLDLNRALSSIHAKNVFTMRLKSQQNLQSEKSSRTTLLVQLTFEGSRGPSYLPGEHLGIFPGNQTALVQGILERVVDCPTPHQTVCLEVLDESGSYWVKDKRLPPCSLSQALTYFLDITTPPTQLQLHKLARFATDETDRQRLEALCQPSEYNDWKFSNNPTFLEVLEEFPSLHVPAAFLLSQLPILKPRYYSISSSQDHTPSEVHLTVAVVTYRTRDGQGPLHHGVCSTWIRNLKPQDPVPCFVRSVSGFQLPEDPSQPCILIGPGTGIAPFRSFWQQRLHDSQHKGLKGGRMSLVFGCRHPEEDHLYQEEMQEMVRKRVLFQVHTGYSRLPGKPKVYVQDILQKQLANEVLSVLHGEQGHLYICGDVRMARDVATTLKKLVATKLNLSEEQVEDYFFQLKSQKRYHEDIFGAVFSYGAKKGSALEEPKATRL
- assay summary: iNOS inhibitory activity in LPS-induced RAW264.7 macrophages (nitrite, Griess reagent)
- Assay type: cell-based
- study conditions: isolated compounds, Table S7, RAW264.7 cells, read-out: Inhibition (IC50) iNOS (converted)
experimental readout: IC50
State the result as a value with its unit after it.

Known IC50 results, listed for orientation:
compound | IC50
COc1cc(-c2oc3cc(O)cc(O)c3c(=O)c2O[C@@H]2O[C@H](CO)[C@@H](O)[C@H](O)[C@H]2O)ccc1O [P3, isorhamnetin-3-O-β-D-glucopyranoside] | 4.89 µM
O=C(O)/C=C/c1ccccc1 [P6, cinnamic acid] | 4.76 µM

# ---- query compound ----
Exercise: If you can, please state the reported IC50 value of O=c1c(O[C@@H]2O[C@H](CO)[C@@H](O)[C@H](O)[C@H]2O)c(-c2ccc(O)c(O)c2)oc2cc(O)cc(O)c12 [P2, isoquercitrin] .
Solution: 4.8 µM
